species: Canis familiaris; experiment: In vitro effect on methemoglobin formation in blood of dog at 5 mM concentration; assay type: functional, Canis lupus familiaris
endpoint: Methemoglobin (%)

1. Clc1ccc2c(NCCCCNc3ccnc4cc(Cl)ccc34)ccnc2c1    90.8
2. Clc1ccc2c(NCCNCCCCNCCNc3ccnc4cc(Cl)ccc34)ccnc2c1    3
3. N/C(=N\CCCC(Nc1ccnc2cc(Cl)ccc12)C(=O)O)Nc1ccnc2cc(Cl)ccc12 (stereo unspecified)    1.5
4. COc1cc(NC(C)CCCN)c2ncccc2c1 (stereo unspecified)    87.6
5. O=C(O)C(CCCNc1ccnc2cc(Cl)ccc12)Nc1ccnc2cc(Cl)ccc12 (stereo unspecified)    6.89
6. O=[N+]([O-])c1cc2c(NCCCCNc3ccnc4cc(Cl)c([N+](=O)[O-])cc34)ccnc2cc1Cl    6.42
